# target: UniProt Q9H7B4
# protocol_summary: SMYD3 biochemical assay (SPA, 3H-SAM methylation of MEKK2 protein substrate)
# condition_parameters: read-out: SMYD3 Biochem IC50*
reported_metric: IC50 (nM)
Give bare numbers, in nM.

In [3]: df
Out[3]:
                                 smiles_str  reported_metric  scale_unit  value_observed
0  O=C(N[C@H]1C[C@H]2CC[C@@H](C1)N2S(=O)(=O)N1CC2CCC1CN2)c1cc(C2CC2)on1             IC50          nM            7.06

Provide IC50 values for the following items, in order.
1. C[C@H]1CN(S(=O)(=O)[C@H]2CC[C@H](N)CC2)CC[C@H]1NC(=O)c1cc(C2CC2)on1
2. CC(C)CN1CCC2(CC1)CN(S(=O)(=O)N1[C@@H]3CC[C@H]1C[C@@H](NC(=O)c1cc(C4CC4)on1)C3)C2
3. O=C(N[C@H]1C[C@H]2CC[C@@H](C1)N2S(=O)(=O)N1CCC(NCc2ccc(F)cc2)CC1)c1cc(C2CC2)on1

1: 1.81; 2: 3.13; 3: 5.73
